Recorded values, source patent US10168342B2.

Target: AEA-DA lipid probe targets in Neuro2a cells (Mus musculus)
Sequence (O88531 28-306): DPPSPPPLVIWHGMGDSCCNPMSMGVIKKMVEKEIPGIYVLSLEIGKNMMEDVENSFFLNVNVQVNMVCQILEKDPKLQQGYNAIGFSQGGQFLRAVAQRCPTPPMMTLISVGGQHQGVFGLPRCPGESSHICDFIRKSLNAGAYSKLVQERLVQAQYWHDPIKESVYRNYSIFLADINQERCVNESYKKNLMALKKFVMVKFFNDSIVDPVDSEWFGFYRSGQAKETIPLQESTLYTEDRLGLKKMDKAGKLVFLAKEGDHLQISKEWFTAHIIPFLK
Conditions: competitor 25 μM
Value type: SILAC ratio Ppt1
// print number alone

// known answers, use as guide
C=CCN(C)CCCCCCOc1ccc(C(=O)c2ccc(Br)cc2)c(F)c1 [Ro 48-8071, reference compound]    1.6
O=C(/C=C/c1cccnc1)NCCCCC1CCN(C(=O)c2ccccc2)CC1 [FK-866, reference compound]    0.8
CN1CCN(C(=O)c2c(-c3ccccc3)c3cc([N+](=O)[O-])ccc3n2C)CC1    1.2

Below: the item to evaluate.
Entry CN1CCN(C(=O)c2[nH]c3ccc([N+](=O)[O-])cc3c2-c2ccccc2)CC1 , SILAC ratio Ppt1 reported as 1.5
